RUN_DESCRIPTION: Pharmacokinetic evaluation experiment in mice (IV and PO)
Format: in vivo
MEASUREMENT_CONTEXT: mouse; male ICR mice, PO 30 mg/kg, plasma; read-out: Cmax
Let's look at some molecules and their measured Cmax.
Respond with the bare value in ng/mL.

CNC(=O)c1cc2c(c(F)c1-c1c(Cl)c(F)cc3c1C[C@](c1ccccc1)([C@@H]1CCCN1)O3)CCC2 [Compound 31a] ... 928
CNC(=O)c1cc2c(c(F)c1-c1c(Cl)c(F)cc3c1C[C@@](CN[C@H]1CC[C@H](O)CC1)(c1ccccc1)O3)C1CC1O2 (stereo partly drawn) [Compound 13a] ... 2050
CNC(=O)c1cc2c(c(F)c1-c1c(Cl)c(F)cc3c1C[C@](c1ccccc1)([C@@H]1CC4(CC4)CN1)O3)OC1CC21 (stereo partly drawn) [Compound 18a] ... 199
CNC(=O)c1cc2c(c(F)c1-c1c(Cl)c(F)cc3c1C[C@](c1ccccc1)([C@@H]1CC4(CC4)CN1)O3)C1CC1O2 (stereo partly drawn) [Compound 16a] ... 434
CNC(=O)c1cc2c(c(F)c1-c1c(Cl)c(F)cc3c1C[C@](c1ccccc1)([C@@H]1CCCN1)O3)OC1CC21 (stereo partly drawn) [Compound 17a] ... 424

Read the next record carefully.
// query Return reported Cmax; argument: NC(=O)c1cc2c(c(F)c1-c1c(Cl)c(F)cc3c1C[C@](c1ccccc1)([C@@H]1CCCN1)O3)CCC2O (stereo partly drawn) [Compound 53a]
// result 301

###

RUN_DESCRIPTION: Pharmacokinetic evaluation experiment in mice (IV and PO)
Type: in vivo
MEASUREMENT_CONTEXT: mouse; male ICR mice, IV 5 mg/kg, plasma
Is clearance at least 80 mL/min/kg? Then true. If not, false.

For orientation, consider the following solved cases.
CNC(=O)c1cc2c(c(F)c1-c1c(Cl)c(F)cc3c1C[C@](c1ccccc1)([C@@H]1CCCN1)O3)C1CC1O2 (stereo partly drawn) ... true
CNC(=O)c1cc2c(c(F)c1-c1c(Cl)c(F)cc3c1C[C@](c1ccccc1)([C@@H]1CCCN1)O3)CCC2O (stereo partly drawn) [Compound 41a] ... false
CNC(=O)c1cc2c(c(F)c1-c1c(Cl)c(F)cc3c1C[C@](c1ccccc1)([C@@H]1CCCN1)O3)OC1CC21 (stereo partly drawn) [Compound 17a] ... false
CNC(=O)c1cc2c(c(F)c1-c1c(Cl)c(F)cc3c1C[C@](c1ccccc1)([C@@H]1CC4(CC4)CN1)O3)C1CC1O2 (stereo partly drawn) [Compound 16a] ... false
NC(=O)c1cc2c(c(F)c1-c1c(Cl)c(F)cc3c1C[C@](c1ccccc1)([C@@H]1CCCN1)O3)CCC2O (stereo partly drawn) [Compound 53a] ... false

Now look at this entry.
// query Form field: clearance at least 80 mL/min/kg? Entry: CNC(=O)c1cc2c(c(F)c1-c1c(Cl)c(F)cc3c1C[C@](c1ccccc1)([C@@H]1CCCN1)O3)CCC2 [Compound 31a]
// result false

###

Readings of AUC for the listed compounds
RUN_DESCRIPTION: Pharmacokinetic evaluation experiment in mice (IV and PO)
Format: in vivo
MEASUREMENT_CONTEXT: mouse; male ICR mice, PO 30 mg/kg, plasma; read-out: AUC
Quick note: give the figure in ng·h/mL, leave out the unit.

// known answers, use as guide
CNC(=O)c1cc2c(c(F)c1-c1c(Cl)c(F)cc3c1C[C@](c1ccccc1)([C@@H]1CCCN1)O3)OC1CC21 (stereo partly drawn) [Compound 17a] ... 3450
CNC(=O)c1cc2c(c(F)c1-c1c(Cl)c(F)cc3c1C[C@](c1ccccc1)([C@@H]1CC4(CC4)CN1)O3)OC1CC21 (stereo partly drawn) [Compound 18a] ... 1680
CNC(=O)c1cc2c(c(F)c1-c1c(Cl)c(F)cc3c1C[C@](c1ccccc1)([C@@H]1CCCN1)O3)CCC2 [Compound 31a] ... 7470
CNC(=O)c1cc2c(c(F)c1-c1c(Cl)c(F)cc3c1C[C@](c1ccccc1)([C@@H]1CCCN1)O3)C1CC1O2 (stereo partly drawn) ... 4300
CNC(=O)c1cnc(OCCO)c(F)c1-c1c(Cl)c(F)cc2c1C[C@](c1ccccc1)([C@@H]1CC3(CC3)CN1)O2 [Compound 10a] ... 1710

// query Look at this compound and give its reported AUC. NC(=O)c1cc2c(c(F)c1-c1c(Cl)c(F)cc3c1C[C@](c1ccccc1)([C@@H]1CCCN1)O3)CCC2O (stereo partly drawn) [Compound 53a]
// result 1620

// query Look up AUC: CNC(=O)c1cc2c(c(F)c1-c1c(Cl)c(F)cc3c1C[C@](c1ccccc1)([C@@H]1CCCN1)O3)CCC2O (stereo partly drawn) [Compound 41a]
// result 8460

// query Find the recorded AUC belonging to CNC(=O)c1cc2c(c(F)c1-c1c(Cl)c(F)cc3c1C[C@@](CN[C@H]1CC[C@H](O)CC1)(c1ccccc1)O3)C1CC1O2 (stereo partly drawn) [Compound 13a] and report it.
// result 13100

// query Which AUC reading was recorded for the compound CNC(=O)c1cc2c(c(F)c1-c1c(Cl)c(F)cc3c1C[C@](c1ccccc1)([C@@H]1CC4(CC4)CN1)O3)C1CC1O2 (stereo partly drawn) [Compound 16a] ?
// result 3570
